# Test system: NIH little mice
# TEST_METHOD_NOTES: Toxicological experiment, single oral dose, 10 days observation (Examples 32-35)
# Type: in vivo
# CONDITION: oral dosage tested relative to normal dose for human beings
Where a name gives a salt, the structure may show the parent alone.
PARAMETER_MEASURED: dosage without toxic reaction as multiple of the normal dosage

O=C1C[C@@H](c2ccc(O)cc2)Oc2cc(O)cc(O)c21 [sodium salt of Naringenin]	460
C[C@@H]1O[C@@H](O[C@H]2[C@H](Oc3cc(O)c4c(c3)O[C@H](c3ccc(O)cc3)CC4=O)O[C@H](CO)[C@@H](O)[C@@H]2O)[C@H](O)[C@H](O)[C@H]1O [Naringin]	230
C[C@@H]1O[C@@H](O[C@H]2[C@H](Oc3cc(O)c4c(c3)O[C@H](c3ccc(O)cc3)CC4=O)O[C@H](CO)[C@@H](O)[C@@H]2O)[C@H](O)[C@H](O)[C@H]1O [sodium salt of Naringin]	230

In plain terms, O=C1CC(c2ccc(O)cc2)Oc2cc(O)cc(O)c21 (stereo not shown) [Naringenin, 4', 5, 7 -trihydroxyflavanone] has a documented dosage without toxic reaction as multiple of the normal dosage of 460

Values were extracted from patent EP1591123A1.
